Experiment Description: yeast display, Sf9 membrane polyspecificity reagent, FACS + sequencing; frameworks hold sequencing errors

- Sequence Code: "QVQLVESGGGLVQAGGSLRLSCAASGSIFYVYVMGWYRQAPGKERELVAGISYRGGSTYYADSVKGRFTISRDNAKNTVYLQMNSLKPEDTAVYYCNAGVWTYWHIEMDYWGQGTQVTVSS"
  polyreactivity (PSR sort gate): "low polyreactivity"
- Sequence Code: "QVLLVESGGGLVQAGGSLRLTCTPYGSIFGYYVMGRYRQPPGKEREFVAAISYGGGSTYYADSVKGRFTISRDNAKNTVYLQMNSLKPEETAVYYCNTDIYSDYVGEEYEYWGQGSQVTVSS"
  polyreactivity (PSR sort gate): "high polyreactivity"
- Sequence Code: "QVQLVESGGGLVQAGGSLRLSCAASGSIFYQNAMGWYRQAPGKEREFVAAIRSSGSSTYYADSVKGRFTISRDNAKNTVYLQMNSLKPEDTAVYYCAAPSSRGQGRNFDYWGQGTQVTVSS"
  polyreactivity (PSR sort gate): "high polyreactivity"
- Sequence Code: "QVQLVESGGGLVQAGGSLRLSCASSGIIFNVYAMGWYRQAPGKERELVAAISSTSSTYADSVKGRFTISRDNAKNTVYLQMNSLKPEDTAVYYCNTDYSDGYPAFAYWGQGTQVTVSS"
  polyreactivity (PSR sort gate): "low polyreactivity"
- Sequence Code: "QVQLVESGGGLVQAGGSLRLSCAASGSTFRYYVMGWYRQAPGKERELVARITSAASTNYADSVKGRFTISRDNAKNTVYLQMNSLKPEDTAVYYCAARKYGSRYRLKYDYWGQGTQVTVSS"
  polyreactivity (PSR sort gate): "high polyreactivity"

====

Experiment Description: yeast display, Sf9 membrane polyspecificity reagent, FACS + sequencing; frameworks hold sequencing errors

- Sequence Code: "QVQLVESGGGLVQAGGSLRLSCAASGRTFLYYAMGWYRQAPGKERELVAAISSGGSTNYADSVKGRFTISRDNAKNTVYLQMNSLKPEDTAVYYCNADYTSRDTSDVIYEYDYWGQGTQVTVSS"
  polyreactivity (PSR sort gate): "low polyreactivity"
- Sequence Code: "QVQLQESGGVLVQAVDRQRLSCAASGNIFLFTDMGWYRQAPGKERELVAAINAGSTTYYADSVKGRFTISRDNAKNTVYLQMNSLNPEDTEVYYCAVYYLGSGTFGYWGQGAQVTVSS"
  polyreactivity (PSR sort gate): "high polyreactivity"
- Sequence Code: "QVQLVESGGGLVQAGGSLRLTCAASGRIFYPYPMGWYRQAPGKERELVAAIDKGGGSTYYADSVKGRFSISRDNAKNTVYLQMNSLKPEDTAVFYCAAGWEYPYDYWGQGTQVTVSS"
  polyreactivity (PSR sort gate): "low polyreactivity"
- Sequence Code: "QVQLVESGGGLVQAGGSLRLSCAASGSTFYWYAKGWYRQAPGKERELVAAITSTGGSTYADSVKGRFTISRDNAKNTVYLQMNSLKPEDTAVYYCNVDTSSPSRRDYDYWGQGTQVTVSS"
  polyreactivity (PSR sort gate): "low polyreactivity"
- Sequence Code: "QVQLVESGGGLVQAGGSLRLSCAASGSIFGYYAMGWYRQAPGKERELVAAISGSGGSTYYADSVKGRFTISRDNAKNTVYLQMNSLKPEDTAVYYCAAAYHGRHYYWGQGTQVTVSS"
  polyreactivity (PSR sort gate): "high polyreactivity"
